tested on: UACC-62; test: Antiproliferative activity against human UACC62 cells; assay type: functional
attributeMeasured: GI50 (nM)
// note: answer is a bare numeric in nM

# lookup: GI50 of "O=c1c2ccccc2cc2n1Cc1c-2nc2ccccc2c1CCCN1CCOCC1" 1400

Endpoint output: GI50 of "NCc1c2c(nc3ccccc13)-c1cc3ccccc3c(=O)n1C2" . Value? 11700

# query: GI50 of entry "O=c1c2ccccc2cc2n1Cc1c-2nc2ccccc2c1CCCNCCO" 1800

// query GI50 value for entry "O=c1c2ccccc2cc2n1Cc1c-2nc2ccccc2c1CCCn1ccnc1" 1500

What does the data say about its GI50? Entry: "COc1cc2c3c(n(C)c(=O)c2cc1OC)-c1cc2c(cc1C3=O)OCO2" 4200

Reported GI50 for "CC[C@@]1(O)C(=O)OCc2c1cc1n(c2=O)Cc2cc3ccccc3nc2-1" : what is it? 10

Fill in the blank: the reported GI50 of "O=c1c2ccccc2cc2n1Cc1c-2nc2ccccc2c1Cn1ccnc1" is ____. 3400

Tell me the measured GI50 of "O=c1c2ccccc2cc2n1Cc1c-2nc2ccccc2c1CNCCO" , please. 2600

What does the record list as GI50 for "O=c1c2ccccc2cc2n1Cc1c-2nc2ccccc2c1CN1CC[C@H](O)C1" ? 2700

Item under review: "COc1cc2c3c(n(CCCNCCO)c(=O)c2cc1OC)-c1cc2c(cc1C3=O)OCO2" . Reported GI50? 30

For the molecule shown here, "O=c1c2ccccc2cc2n1Cc1c-2nc2ccccc2c1CNCCCn1ccnc1" , give the reported GI50. 6400

----------
For each entry below, report its log10 of GI50 value.
tested on: HCT-116; experiment: Antiproliferative activity against human HCT116 cells; format: functional
Hello, just confirming the data are log10 of GI50 with units of nM.

Would you kindly share the measured log10 of GI50 for "O=c1c2ccccc2cc2n1Cc1c-2nc2ccccc2c1CCCn1ccnc1" ? 3.20

Which log10 of GI50 value belongs to "COc1cc2c3c(n(C)c(=O)c2cc1OC)-c1cc2c(cc1C3=O)OCO2" ? 4.54

Give the measured log10 of GI50 of COc1cc2c3c(n(CCCNCCO)c(=O)c2cc1OC)-c1cc2c(cc1C3=O)OCO2 [LMP-744] . 2.00

Need log10 of GI50 of "O=c1c2ccccc2cc2n1Cc1c-2nc2ccccc2c1Cn1ccnc1" , thanks. 4.12

What does the data say about its log10 of GI50? Entry: "O=c1c2ccccc2cc2n1Cc1c-2nc2ccccc2c1CCCNCCO" 3.20

I would be grateful if you could share the reported log10 of GI50 for CC[C@@]1(O)C(=O)OCc2c1cc1n(c2=O)Cc2cc3ccccc3nc2-1 [CAMPTOTHECIN] . 1.48

Entry "O=c1c2ccccc2cc2n1Cc1c-2nc2ccccc2c1CNCCCn1ccnc1" has what log10 of GI50? 3.51

Reported log10 of GI50 for "O=c1c2ccccc2cc2n1Cc1c-2nc2ccccc2c1CCl" : what is it? 4.64

// query log10 of GI50 value for entry "NCc1c2c(nc3ccccc13)-c1cc3ccccc3c(=O)n1C2" 3.18

// returns reported log10 of GI50 for input "O=c1c2ccccc2cc2n1Cc1c-2nc2ccccc2c1CNCCO" 3.56
